- targetOfAssay: human OX1 receptor (Homo sapiens)
- Sequence (O43613 whole entry): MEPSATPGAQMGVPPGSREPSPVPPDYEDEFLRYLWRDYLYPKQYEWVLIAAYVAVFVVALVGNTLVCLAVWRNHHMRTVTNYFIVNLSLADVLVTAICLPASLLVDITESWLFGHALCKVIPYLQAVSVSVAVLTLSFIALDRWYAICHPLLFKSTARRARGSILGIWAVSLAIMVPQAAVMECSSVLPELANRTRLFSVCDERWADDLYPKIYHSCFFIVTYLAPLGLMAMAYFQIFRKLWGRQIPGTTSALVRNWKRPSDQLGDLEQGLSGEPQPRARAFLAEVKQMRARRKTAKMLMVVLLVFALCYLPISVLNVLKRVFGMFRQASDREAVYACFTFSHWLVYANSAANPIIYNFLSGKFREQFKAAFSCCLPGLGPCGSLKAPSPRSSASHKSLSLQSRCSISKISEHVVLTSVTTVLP
- assayProcedure: Calcium mobilization Ke assay, OX1
- Assay type: cell-based
propertyMeasured: Kd (nM)
Your answer should be a plain number; it is taken to be in nM.

Quick note, Kd for COc1cc2c(cc1N)C(Cc1ccc(OC)c(OC)c1)N(CC(=O)NCc1ccccc1)CC2 (stereo not drawn) [Compound 33] landed at 494

Quick note, Kd for COc1cc2c(cc1NCc1ccccc1)C(Cc1ccc(OC)c(OC)c1)N(CC(=O)NCc1ccccc1)CC2 (stereo not drawn) [Compound 34b] landed at 352

Quick note, Kd for COc1cc2c(cc1OCC(F)(F)F)C(Cc1ccc(C)c(C)c1)N(CC(=O)NCc1cccnc1)CC2 (stereo not drawn) [Compound 15b] landed at 20.4

Quick note, Kd for COc1ccc(CC2c3cc(N(C)C)c(OC)cc3CCN2CC(=O)NCc2ccccc2)cc1OC (stereo not drawn) [Compound 34a] landed at 31.2

Quick note, Kd for COc1cc(CC2c3cc(OS(C)(=O)=O)c(OC)cc3CCN2CC(=O)NCc2ccccc2)ccc1OCc1ccccc1 (stereo not drawn) [Compound 25a] landed at 43

Quick note, Kd for CCCCOc1ccc(CC2c3cc(OS(C)(=O)=O)c(OC)cc3CCN2CC(=O)NCc2ccccc2)cc1OC (stereo not drawn) [Compound 25b] landed at 5.24

Quick note, Kd for CCCOc1cc2c(cc1OC)CCN(CC(=O)NCc1ccccc1)C2Cc1cccc(N(C)C)c1 (stereo not drawn) [Compound 12f] landed at 20.6

Quick note, Kd for CCCOc1cc2c(cc1OC)CCN(CC(=O)NCc1ccccc1)C2Cc1ccc(N(C)C)cc1 (stereo not drawn) [Compound 12d] landed at 173

Quick note, Kd for CCCOc1cc2c(cc1OC)CCN(CC(=O)NCc1ccccc1)C2Cc1ccc(C(C)C)cc1 (stereo not drawn) [Compound 12c] landed at 141

Quick note, Kd for COc1ccc(CC2c3cc(N(C)C)c(OC)cc3CCN2CC(=O)NCc2ccccc2)cc1N(C)C (stereo not drawn) [Compound 39] landed at 7.6

Quick note, Kd for CCCOc1cc2c(cc1OC)CCN(CC(=O)NCc1ccccc1)C2Cc1ccc(C)c(C)c1 (stereo not drawn) [Compound 12b] landed at 28.8

Quick note, Kd for COc1cc2c(cc1NS(C)(=O)=O)C(Cc1ccc(OC)c(OC)c1)N(CC(=O)NCc1ccccc1)CC2 (stereo not drawn) [Compound 34d] landed at 128

Quick note, Kd for COc1cc2c(cc1NC(C)=O)C(Cc1ccc(OC)c(OC)c1)N(CC(=O)NCc1ccccc1)CC2 (stereo not drawn) [Compound 34c] landed at 116

Quick note, Kd for CCCOc1cc2c(cc1OC)CCN(CC(=O)NCc1ccccc1)C2Cc1ccc(OCc2ccccn2)c(OC)c1 (stereo not drawn) [Compound 12g] landed at 96.4

Quick note, Kd for CCCOc1cc2c(cc1OC)CCN(CC(=O)NCc1ccccc1)C2Cc1ccc2ccccc2c1 (stereo not drawn) [Compound 12a] landed at 121

----------
- targetOfAssay: human OX1 receptor (Homo sapiens)
- assayProcedure: Calcium mobilization Ke assay, OX1
- Type: cell-based
- conditionSet: Ke (OX1, nM), compound appeared insurmountable during standard assay procedure, incubation increased to 1 hour
propertyMeasured: Kd

Reading of Kd for COc1cc2c(cc1OCC(F)(F)F)C(Cc1ccccn1)N(CC(=O)NCc1ccccc1)CC2 (stereo not drawn) [Compound 19a] with human OX1 receptor (Homo sapiens): 884 nM

Reading of Kd for COc1cc2c(cc1OCC(F)(F)F)C(Cc1ccncc1)N(CC(=O)NCc1ccccc1)CC2 (stereo not drawn) [Compound 19c] with human OX1 receptor (Homo sapiens): 1860 nM

Reading of Kd for COc1cc2c(cc1OCC(F)(F)F)C(Cc1cccnc1)N(CC(=O)NCc1ccccc1)CC2 (stereo not drawn) [Compound 19b] with human OX1 receptor (Homo sapiens): > 10000 nM

Origin of measurements: paper PMC6002953
